Cited source: the supplement of paper PMC9233669

test system: biotinyl-Met-oxazolone; assay: self-aminoacylation, catalytic enhancement (BMO) (fold over background); higher = more active; k-Seq, kA / k0A0; sequences stand for … in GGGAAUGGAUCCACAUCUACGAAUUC…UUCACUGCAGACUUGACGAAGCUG
Fewer inactive variants are shown than the library holds.
# cutoff 1 applies to self-aminoacylation; >= gives 1.0, < gives 0.0

Task item: Form field: self-aminoacylation at least 1? Entry: AUUUACCUAGGUAAUCGGGUG [Fam2.2 aminoacylation ribozyme variant]
Reply: 1.0

Task item: Form field: self-aminoacylation at least 1? Entry: AUAACCCGGGUCAUCGAGUGA [Fam2.1 aminoacylation ribozyme variant]
Reply: 1.0

Task item: Form field: self-aminoacylation at least 1? Entry: CUACACUUCAAGCUAUCGGUC [Fam1B.1 aminoacylation ribozyme variant]
Reply: 0.0

Task item: Form field: self-aminoacylation at least 1? Entry: AAGAUUGCUAAUAUUCGCAAG [Fam3.1 aminoacylation ribozyme variant]
Reply: 1.0

Task item: Form field: self-aminoacylation at least 1? Entry: CCACACUUCAUGCAAUCGUUC [Fam1B.1 aminoacylation ribozyme variant]
Reply: 0.0
